test_description: Confirmatory Assay for General miRNAs Modulators and/or Inhibitors/Activators of miR-21: second round cherrypicks
test_settings: HeLa miR-21 FLuc reporter, luciferase luminescence, 48 h; series mostly up to 38.3 µM
Records with an inconclusive call do not appear. Activity calls are given as the source filed them. Calls follow the shape of the dose curve; as a rule, active = well fitted inhibition curve with a large enough effect; inconclusive = small, poorly fitted or top-dose-only effect; inactive = flat fitted curve, though single readings scatter.
Outcome field: choose from YES = active, NO = inactive

Worked examples, 2 compounds total:
compound	assigned_category
CC(=O)c1ccc(Oc2ncnc3c2oc2ccccc23)cc1	YES
COc1ccc(N2C(=O)c3ccccc3NC2c2ccc(OC)c(Cn3nnc4ccccc43)c2)cc1 (configuration not stated)	YES

## Input Answer briefly: the call reported for `COc1ccccc1N1CCN(C(=O)c2nc(-c3ccc(C)cc3)n3c2CCCCC3)CC1` in this assay.
## Output NO

## Input Answer briefly: the call reported for `CC(=O)N1CCc2cc(CNC(=O)Cc3ccc(F)cc3)ccc21` in this assay.
## Output YES

## Input Answer briefly: the call reported for `Cc1cccc(NC(=O)Nc2ccc(Br)cc2)n1` in this assay.
## Output YES
